- study-target: GST (Schistosoma japonicum, UniProt P08515)
- Construct: purchased Sigma-Aldrich
- Sequence (P08515 whole entry): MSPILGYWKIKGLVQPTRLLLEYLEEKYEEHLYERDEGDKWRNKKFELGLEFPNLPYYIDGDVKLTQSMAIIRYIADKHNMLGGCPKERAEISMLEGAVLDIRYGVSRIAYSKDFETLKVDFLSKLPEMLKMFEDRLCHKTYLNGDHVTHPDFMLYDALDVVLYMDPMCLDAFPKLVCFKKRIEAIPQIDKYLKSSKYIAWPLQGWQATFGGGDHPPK
- method-description: biochemical
- Assay type: biochemical
- recorded-conditions: Ki, F1 peptide 3.2 μM, noncompetitive
No end group written: not given here.
measurement-type: Ki (µM)

> print(dat)
       construct.sequence  measurement.type  reported
1  GYWKIKGLV [F1 peptide]                Ki      5.82

---

- study-target: GST (Schistosoma japonicum, UniProt P08515)
- Construct: purchased Sigma-Aldrich
- method-description: biochemical
- Type: biochemical
- recorded-conditions: Ki, F2 peptide 3.2 μM, competitive
No end group written: not given here.
measurement-type: Ki (µM)

> print(dat)
              construct.sequence  endpoint.unit  reported
1  KWRNKKFELGLEFPNL [F2 peptide]             µM      2.42
